- assay_text: Metabolic stability in human liver microsomes
- Format: in vitro ADME
- applied_conditions: pH 7.4, 1 μM compound, 0.5 mg/mL protein, 37° C.
attribute_measured: microsomal CLint at 1 μM

>  <molecule>
[2H]c1c([2H])c(/N=C(/NO)c2nonc2NCC([2H])([2H])NS(N)(=O)=O)c([2H])c(Br)c1F

>  <attribute_measured>
microsomal CLint at 1 μM

>  <assay_value>
< 9.6 µL/min/mg

$$$$
>  <molecule>
[2H]c1cc(/N=C(/NO)c2nonc2NC([2H])([2H])C([2H])([2H])NS(N)(=O)=O)cc(Br)c1F

>  <attribute_measured>
microsomal CLint at 1 μM

>  <assay_value>
< 9.6 µL/min/mg

$$$$
>  <molecule>
[2H]c1cc(F)c(Br)c([2H])c1/N=C(/NO)c1nonc1NCCNS(N)(=O)=O

>  <attribute_measured>
microsomal CLint at 1 μM

>  <assay_value>
< 9.6 µL/min/mg

$$$$
>  <molecule>
NS(=O)(=O)NCCNc1nonc1C(=NO)Nc1ccc(F)c(Br)c1 [Epacadostat, reference compound]

>  <attribute_measured>
microsomal CLint at 1 μM

>  <assay_value>
9.6 µL/min/mg

$$$$
>  <molecule>
[2H]c1c([2H])c(/N=C(/NO)c2nonc2NCCNS(N)(=O)=O)c([2H])c(Br)c1F

>  <attribute_measured>
microsomal CLint at 1 μM

>  <assay_value>
< 9.6 µL/min/mg

$$$$
>  <molecule>
[2H]c1cc(F)c(Br)c([2H])c1/N=C(/NO)c1nonc1NC([2H])([2H])C([2H])([2H])NS(N)(=O)=O

>  <attribute_measured>
microsomal CLint at 1 μM

>  <assay_value>
< 9.6 µL/min/mg

$$$$
>  <molecule>
[2H]C([2H])(Nc1nonc1/C(=N\c1ccc(F)c(Br)c1)NO)C([2H])([2H])NS(N)(=O)=O

>  <attribute_measured>
microsomal CLint at 1 μM

>  <assay_value>
< 9.6 µL/min/mg

$$$$
>  <molecule>
[2H]C([2H])(CNc1nonc1/C(=N\c1ccc(F)c(Br)c1)NO)NS(N)(=O)=O

>  <attribute_measured>
microsomal CLint at 1 μM

>  <assay_value>
< 9.6 µL/min/mg

$$$$

* * *

- assay_text: Metabolic stability in rat liver microsomes
- Type: in vitro ADME
- applied_conditions: Sprague-Dawley (SD), pH 7.4, 1 μM compound, 0.5 mg/mL protein, 37° C.
- Protocol: Metabolic Stability Evaluation […] Incubation of the samples: The stock solution of the respective compound was respectively diluted to 0.25 mM with an aqueous solution containing 70% acetonitrile, and used as a working solution, ready for use. […] Data analysis: The peak areas of the corresponding compound and internal standard were detected by LC-MS/MS system, and the ratio of the peak area of the compound to the internal standard was calculated.
attribute_measured: microsomal CLint at 1 μM

>  <smiles_representation>
[2H]C([2H])(CNS(N)(=O)=O)Nc1nonc1/C(=N\c1ccc(F)c(Br)c1)NO

>  <assay_value>
18.9 µL/min/mg

$$$$
>  <smiles_representation>
[2H]c1cc(/N=C(/NO)c2nonc2NCCNS(N)(=O)=O)cc(Br)c1F

>  <assay_value>
21.3 µL/min/mg

$$$$
>  <smiles_representation>
[2H]c1cc(F)c(Br)c([2H])c1/N=C(/NO)c1nonc1NC([2H])([2H])CNS(N)(=O)=O

>  <assay_value>
18.5 µL/min/mg

$$$$
>  <smiles_representation>
[2H]c1cc(F)c(Br)c([2H])c1/N=C(/NO)c1nonc1NCCNS(N)(=O)=O

>  <assay_value>
19.6 µL/min/mg

$$$$
